The compounds listed here are annotated with their mass density.
- experimental_setup: 328.15 K; 25000 kPa; Liquid; Vibrating tube method
Unit kg/m3 implied. Number only.

Complete the entry with mass density for Cc1ccc(C)s1
971.57

Complete the entry with mass density for c1ccsc1
1046.31

Complete the entry with mass density for Cc1cccs1
1004.64

Complete the entry with mass density for Cc1ccsc1
1006

* * *

- experimental_setup: 283.15 K; 30000 kPa; Liquid; Vibrating tube method
The molecules listed here are annotated with their mass density.
Unit kg/m3 implied. Number only.

Below: 2 molecules and their reported mass density.
>  <mol>
Cc1cccs1

>  <mass density / kg/m3>
1051.93

$$$$
>  <mol>
c1ccsc1

>  <mass density / kg/m3>
1098.18

$$$$

Complete the entry with mass density for Cc1ccsc1
1052.37

Complete the entry with mass density for Cc1ccc(C)s1
1016.24
